Exercise: for every item that follows, state its recorded IC50.
Tested on: A549
MEASUREMENT PROTOCOL: Concentration required to inhibit growth of human tumor A549 (NSCL) cell line.
Assay type: functional, cell-based
Write it as a number; the unit nM goes unstated.

# input Consider the molecule shown here: COC(=O)O[C@H]1C(=O)[C@@]2(C)[C@H]([C@H](OC(=O)c3ccccc3)[C@]3(O)C[C@H](OC(=O)[C@H](O)[C@H](CC(C)C)NC(=O)OC(C)(C)C)C(C)=C1C3(C)C)[C@]1(OC(C)=O)CO[C@@H]1C[C@@H]2O What is its recorded IC50?
# output 0.35

# input Quick one: CC(=O)O[C@@]12CO[C@@H]1C[C@H](O)[C@@]1(C)C(=O)[C@H](OC(=O)N3CCOCC3)C3=C(C)[C@@H](OC(=O)[C@H](O)[C@H](C=C(C)C)NC(=O)OC(C)(C)C)C[C@@](O)([C@@H](OC(=O)c4ccccc4)[C@H]21)C3(C)C
# output 0.22

# input Subsequent entry: CC(=O)O[C@@]12CO[C@@H]1C[C@H](O)[C@@]1(C)C(=O)[C@H](OC(=O)CC(C)(C)C)C3=C(C)[C@@H](OC(=O)[C@H](O)[C@H](C=C(C)C)NC(=O)OC(C)(C)C)C[C@@](O)([C@@H](OC(=O)c4ccccc4)[C@H]21)C3(C)C
# output 0.5

# input CCC(=O)O[C@H]1C(=O)[C@@]2(C)[C@H]([C@H](OC(=O)c3ccccc3)[C@]3(O)C[C@H](OC(=O)[C@H](O)[C@H](C=C(C)C)NC(=O)OC(C)(C)C)C(C)=C1C3(C)C)[C@]1(OC(C)=O)CO[C@@H]1C[C@@H]2O , same question.
# output 0.29

* * *

Exercise: for every item that follows, state its recorded IC50.
Tested on: MCF7
MEASUREMENT PROTOCOL: Concentration required to inhibit growth of human tumor […] (breast) cell line.
Assay type: functional, cell-based
Express your answer in nM, writing the number without its unit.

# input Could you tell me which IC50 is on file for C=CCNC(=O)O[C@H]1C(=O)[C@@]2(C)[C@H]([C@H](OC(=O)c3ccccc3)[C@]3(O)C[C@H](OC(=O)[C@H](O)[C@H](C=C(C)C)NC(=O)OC(C)(C)C)C(C)=C1C3(C)C)[C@]1(OC(C)=O)CO[C@@H]1C[C@@H]2O ?
# output 76

# input Same thing, different molecule: CC(=O)O[C@H]1C(=O)[C@@]2(C)[C@H]([C@H](OC(=O)c3ccccc3)[C@]3(O)C[C@H](OC(=O)[C@H](O)[C@H](CC(C)C)NC(=O)OC(C)(C)C)C(C)=C1C3(C)C)[C@]1(OC(C)=O)CO[C@@H]1C[C@@H]2O
# output 36

# input # repeat for COC(=O)O[C@H]1C(=O)[C@@]2(C)[C@H]([C@H](OC(=O)c3ccccc3)[C@]3(O)C[C@H](OC(=O)[C@H](O)[C@H](C=C(C)C)NC(=O)OC(C)(C)C)C(C)=C1C3(C)C)[C@]1(OC(C)=O)CO[C@@H]1C[C@@H]2O
# output 5.3

# input One more molecule: CC(=O)O[C@@]12CO[C@@H]1C[C@H](O)[C@@]1(C)C(=O)[C@H](OC(=O)CC(C)C)C3=C(C)[C@@H](OC(=O)[C@H](O)[C@H](C=C(C)C)NC(=O)OC(C)(C)C)C[C@@](O)([C@@H](OC(=O)c4ccccc4)[C@H]21)C3(C)C
# output 8.5

# input Then what about the molecule CCCNC(=O)O[C@H]1C(=O)[C@@]2(C)[C@H]([C@H](OC(=O)c3ccccc3)[C@]3(O)C[C@H](OC(=O)[C@H](O)[C@H](C=C(C)C)NC(=O)OC(C)(C)C)C(C)=C1C3(C)C)[C@]1(OC(C)=O)CO[C@@H]1C[C@@H]2O ?
# output 87

# input Another molecule: CCNC(=O)O[C@H]1C(=O)[C@@]2(C)[C@H]([C@H](OC(=O)c3ccccc3)[C@]3(O)C[C@H](OC(=O)[C@H](O)[C@H](C=C(C)C)NC(=O)OC(C)(C)C)C(C)=C1C3(C)C)[C@]1(OC(C)=O)CO[C@@H]1C[C@@H]2O
# output 162

# input Proceed to CO[C@H]1C(=O)[C@@]2(C)[C@H]([C@H](OC(=O)c3ccccc3)[C@]3(O)C[C@H](OC(=O)[C@H](O)[C@H](C=C(C)C)NC(=O)OC(C)(C)C)C(C)=C1C3(C)C)[C@]1(OC(C)=O)CO[C@@H]1C[C@@H]2O
# output 123

# input What do you have for CC(=O)O[C@@]12CO[C@@H]1C[C@H](O)[C@@]1(C)C(=O)[C@H](OC(=O)C3CC3)C3=C(C)[C@@H](OC(=O)[C@H](O)[C@H](C=C(C)C)NC(=O)OC(C)(C)C)C[C@@](O)([C@@H](OC(=O)c4ccccc4)[C@H]21)C3(C)C ?
# output 2.1

* * *

Tested on: A549
MEASUREMENT PROTOCOL: Concentration required to inhibit growth of human tumor A549 (NSCL) cell line.
Format: functional, cell-based
MEASURE NAME: IC50 (nM)
Numeric only. Scale: nM

# input I am curious: what IC50 value has been reported for CCCCC(=O)O[C@H]1C(=O)[C@@]2(C)[C@H]([C@H](OC(=O)c3ccccc3)[C@]3(O)C[C@H](OC(=O)[C@H](O)[C@H](C=C(C)C)NC(=O)OC(C)(C)C)C(C)=C1C3(C)C)[C@]1(OC(C)=O)CO[C@@H]1C[C@@H]2O ?
# output 0.6

# input Record: CC(=O)O[C@@]12CO[C@@H]1C[C@H](O)[C@@]1(C)C(=O)[C@H](OC(=O)CC(C)C)C3=C(C)[C@@H](OC(=O)[C@H](O)[C@H](C=C(C)C)NC(=O)OC(C)(C)C)C[C@@](O)([C@@H](OC(=O)c4ccccc4)[C@H]21)C3(C)C
# output 0.4

# input Same again, this time with CCCCCC(=O)O[C@H]1C(=O)[C@@]2(C)[C@H]([C@H](OC(=O)c3ccccc3)[C@]3(O)C[C@H](OC(=O)[C@H](O)[C@H](C=C(C)C)NC(=O)OC(C)(C)C)C(C)=C1C3(C)C)[C@]1(OC(C)=O)CO[C@@H]1C[C@@H]2O
# output 0.57

# input Another molecule to look at: CO[C@H]1C(=O)[C@@]2(C)[C@H]([C@H](OC(=O)c3ccccc3)[C@]3(O)C[C@H](OC(=O)[C@H](O)[C@H](C=C(C)C)NC(=O)OC(C)(C)C)C(C)=C1C3(C)C)[C@]1(OC(C)=O)CO[C@@H]1C[C@@H]2O
# output 0.9

# input Next record, please: CC(=O)O[C@@]12CO[C@@H]1C[C@H](O)[C@@]1(C)C(=O)[C@H](OC(=O)C3CC3)C3=C(C)[C@@H](OC(=O)[C@H](O)[C@H](C=C(C)C)NC(=O)OC(C)(C)C)C[C@@](O)([C@@H](OC(=O)c4ccccc4)[C@H]21)C3(C)C
# output 0.57

# input Next molecule up: CC(=O)O[C@@]12CO[C@@H]1C[C@H](O)[C@@]1(C)C(=O)[C@H](OC(=O)NC(C)C)C3=C(C)[C@@H](OC(=O)[C@H](O)[C@H](C=C(C)C)NC(=O)OC(C)(C)C)C[C@@](O)([C@@H](OC(=O)c4ccccc4)[C@H]21)C3(C)C
# output 0.36

# input Please do the same for CCCNC(=O)O[C@H]1C(=O)[C@@]2(C)[C@H]([C@H](OC(=O)c3ccccc3)[C@]3(O)C[C@H](OC(=O)[C@H](O)[C@H](C=C(C)C)NC(=O)OC(C)(C)C)C(C)=C1C3(C)C)[C@]1(OC(C)=O)CO[C@@H]1C[C@@H]2O as well.
# output 0.22

# input Repeat for the following molecule: CC(=O)O[C@@]12CO[C@@H]1C[C@H](O)[C@@]1(C)C(=O)[C@H](OC(=O)N(C)C)C3=C(C)[C@@H](OC(=O)[C@H](O)[C@H](CC(C)C)NC(=O)OC(C)(C)C)C[C@@](O)([C@@H](OC(=O)c4ccccc4)[C@H]21)C3(C)C
# output 0.5

# input Another molecule: CC(=O)O[C@@]12CO[C@@H]1C[C@H](O)[C@@]1(C)C(=O)[C@H](OC(=O)C3CCCCC3)C3=C(C)[C@@H](OC(=O)[C@H](O)[C@H](C=C(C)C)NC(=O)OC(C)(C)C)C[C@@](O)([C@@H](OC(=O)c4ccccc4)[C@H]21)C3(C)C
# output 0.75

# input Same for CC(=O)O[C@H]1C(=O)[C@@]2(C)[C@H]([C@H](OC(=O)c3ccccc3)[C@]3(O)C[C@H](OC(=O)[C@H](O)[C@H](CC(C)C)NC(=O)OC(C)(C)C)C(C)=C1C3(C)C)[C@]1(OC(C)=O)CO[C@@H]1C[C@@H]2O
# output 0.98

# input Can you handle CC(=O)O[C@@]12CO[C@@H]1C[C@H](O)[C@@]1(C)C(=O)[C@H](OC(=O)NC3CCCCC3)C3=C(C)[C@@H](OC(=O)[C@H](O)[C@H](CC(C)C)NC(=O)OC(C)(C)C)C[C@@](O)([C@@H](OC(=O)c4ccccc4)[C@H]21)C3(C)C next?
# output 3.7

# input Next molecule up: CCN(CC)C(=O)O[C@H]1C(=O)[C@@]2(C)[C@H]([C@H](OC(=O)c3ccccc3)[C@]3(O)C[C@H](OC(=O)[C@H](O)[C@H](C=C(C)C)NC(=O)OC(C)(C)C)C(C)=C1C3(C)C)[C@]1(OC(C)=O)CO[C@@H]1C[C@@H]2O
# output 0.2

# input Another molecule to check: CC(=O)O[C@H]1C(=O)[C@@]2(C)[C@H]([C@H](OC(=O)c3ccccc3)[C@]3(O)C[C@H](OC(=O)[C@H](O)[C@H](C=C(C)C)NC(=O)OC(C)(C)C)C(C)=C1C3(C)C)[C@]1(OC(C)=O)CO[C@@H]1C[C@@H]2O
# output 0.27

# input Entry to check: CC(=O)O[C@@]12CO[C@@H]1C[C@H](O)[C@@]1(C)C(=O)[C@H](OC(=O)N(C)C)C3=C(C)[C@@H](OC(=O)[C@H](O)[C@H](C=C(C)C)NC(=O)OC(C)(C)C)C[C@@](O)([C@@H](OC(=O)c4ccccc4)[C@H]21)C3(C)C
# output 0.6

# input What do we get for C=CCNC(=O)O[C@H]1C(=O)[C@@]2(C)[C@H]([C@H](OC(=O)c3ccccc3)[C@]3(O)C[C@H](OC(=O)[C@H](O)[C@H](C=C(C)C)NC(=O)OC(C)(C)C)C(C)=C1C3(C)C)[C@]1(OC(C)=O)CO[C@@H]1C[C@@H]2O ?
# output 0.35

# input Queued: COC(=O)O[C@H]1C(=O)[C@@]2(C)[C@H]([C@H](OC(=O)c3ccccc3)[C@]3(O)C[C@H](OC(=O)[C@H](O)[C@H](C=C(C)C)NC(=O)OC(C)(C)C)C(C)=C1C3(C)C)[C@]1(OC(C)=O)CO[C@@H]1C[C@@H]2O
# output 0.32
